The measurements presented in this section are drawn from patent US20160257732A1.

Give Neutralization IC50, H1-TX91 for every item shown.
Molecular target: HA of ca A/Texas/36/91 (H1N1) (influenza A virus)
Assay: cell-based or functional assay
Hi, when you answer, please include the unit after the number. Thanks!

Fill blank: measured Neutralization IC50, H1-TX91 of the binder Antibody 14 (antibody, V domains shown) VH: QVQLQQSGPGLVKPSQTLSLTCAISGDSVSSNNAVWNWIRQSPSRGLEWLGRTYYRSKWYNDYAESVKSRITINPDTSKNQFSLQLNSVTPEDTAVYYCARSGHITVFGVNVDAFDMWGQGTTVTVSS VL: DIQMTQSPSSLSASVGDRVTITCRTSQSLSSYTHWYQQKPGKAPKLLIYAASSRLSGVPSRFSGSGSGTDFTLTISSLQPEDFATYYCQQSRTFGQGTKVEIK is ____.
0.09 µg/mL

Fill blank: measured Neutralization IC50, H1-TX91 of the binder Antibody 11 (antibody, V domains shown) VH: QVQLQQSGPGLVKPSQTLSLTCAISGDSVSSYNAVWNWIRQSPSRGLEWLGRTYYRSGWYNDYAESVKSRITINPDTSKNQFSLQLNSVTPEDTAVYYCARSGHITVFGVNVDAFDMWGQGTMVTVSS VL: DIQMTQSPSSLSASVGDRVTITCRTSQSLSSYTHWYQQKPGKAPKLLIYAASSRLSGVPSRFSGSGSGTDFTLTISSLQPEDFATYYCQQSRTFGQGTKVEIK is ____.
0.11 µg/mL

Fill blank: measured Neutralization IC50, H1-TX91 of the binder Antibody 12 (antibody, V domains shown) VH: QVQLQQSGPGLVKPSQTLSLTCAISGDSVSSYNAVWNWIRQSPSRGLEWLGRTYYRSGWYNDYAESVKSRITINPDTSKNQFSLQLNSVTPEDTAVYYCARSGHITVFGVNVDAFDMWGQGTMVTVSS VL: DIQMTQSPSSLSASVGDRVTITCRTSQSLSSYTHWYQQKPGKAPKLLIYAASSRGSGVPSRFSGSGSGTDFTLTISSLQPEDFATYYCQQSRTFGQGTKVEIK is ____.
0.12 µg/mL
